Every entry's value here was drawn from patent US11207312B2.

System: P. aeruginosa MB9798 (efflux+, IMP-1 plasmid)
recorded_conditions: fold difference between efflux+ (MB9798) and efflux− (MB9799) strains
Below, each entry is listed with its recorded Efflux ratio.

Q: Lab note: need Efflux ratio with P. aeruginosa MB9798 (efflux+, IMP-1 plasmid) for entry NC[C@H](N)CNS(=O)(=O)c1ccc(N2CCN(CCO)CC2)c(-c2nnn[nH]2)c1S(N)(=O)=O , please look it up.
A: 1.00

Q: Lab note: need Efflux ratio with P. aeruginosa MB9798 (efflux+, IMP-1 plasmid) for entry NC[C@@H](O)CNS(=O)(=O)c1ccc(N2CCC(C3COC(=O)N3)CC2)c(-c2nn[nH]n2)c1S(N)(=O)=O (stereo partly shown) , please look it up.
A: 1.00

Q: Lab note: need Efflux ratio with P. aeruginosa MB9798 (efflux+, IMP-1 plasmid) for entry NCC1=CCN(c2ccc(S(=O)(=O)NC[C@H](O)CN)c(S(N)(=O)=O)c2-c2nn[nH]n2)C1.O=C(O)C(F)(F)F.O=C(O)C(F)(F)F , please look it up.
A: 4.00

Q: Lab note: need Efflux ratio with P. aeruginosa MB9798 (efflux+, IMP-1 plasmid) for entry NC[C@@H](O)CNS(=O)(=O)c1ccc(N2CC[C@H](N)[C@H](F)C2)c(-c2nn[nH]n2)c1S(N)(=O)=O , please look it up.
A: 1.00

Q: Lab note: need Efflux ratio with P. aeruginosa MB9798 (efflux+, IMP-1 plasmid) for entry NC[C@@H](O)CNS(=O)(=O)c1ccc(N2CC[C@H](CN)[C@H](O)C2)c(-c2nn[nH]n2)c1S(N)(=O)=O , please look it up.
A: 2.00

Q: Lab note: need Efflux ratio with P. aeruginosa MB9798 (efflux+, IMP-1 plasmid) for entry NS(=O)(=O)c1c(S(=O)(=O)N[C@@H]2CCNC2)ccc(N2CCC(CCO)CC2)c1-c1nnn[nH]1 , please look it up.
A: 1.00

Q: Lab note: need Efflux ratio with P. aeruginosa MB9798 (efflux+, IMP-1 plasmid) for entry NC1(CO)CCN(c2ccc(S(=O)(=O)N[C@@H]3CCNC3)c(S(N)(=O)=O)c2-c2nnn[nH]2)C1 (stereo partly shown) , please look it up.
A: 4.00

---

Tested on: P. aeruginosa MB9798 (efflux+, IMP-1 plasmid)
recorded_conditions: efflux + (MB9798) strain; imipenem at 2 μg/mL; in the presence of a class A, C, D serine β-lactamase inhibitor closely related to relebactam
Below, each entry is listed with its recorded MB9798 MITC95 P. aeruginosa uM Efflux WT.
Give the quantity in µM, number only.

For orientation, consider the following solved cases.
- molecule: "NS(=O)(=O)c1c(S(=O)(=O)N[C@@H]2CCNC2)ccc(N2CCCCC2=O)c1-c1nn[nH]n1"
  units_symbol: "µM"
  MB9798 MITC95 P. aeruginosa uM Efflux WT: 3.13
- molecule: "CC1(O)CCN(c2ccc(S(=O)(=O)N[C@@H]3CCNC3)c(S(N)(=O)=O)c2-c2nnn[nH]2)CC1"
  units_symbol: "µM"
  MB9798 MITC95 P. aeruginosa uM Efflux WT: 1.56
- molecule: "NCC(CN)NS(=O)(=O)c1ccc(N2CCC(CO)CC2)c(-c2nnn[nH]2)c1S(N)(=O)=O"
  units_symbol: "µM"
  MB9798 MITC95 P. aeruginosa uM Efflux WT: 1.56

Q: Looking for the measured MB9798 MITC95 P. aeruginosa uM Efflux WT of NCC1CCN(c2ccc(S(=O)(=O)NC[C@H](O)CN)c(S(N)(=O)=O)c2-c2nnn[nH]2)CC1 , can you help?
A: 0.39

Q: Looking for the measured MB9798 MITC95 P. aeruginosa uM Efflux WT of NC[C@@H](O)CNS(=O)(=O)c1ccc(N2CCC(CNCCO)CC2)c(-c2nn[nH]n2)c1S(N)(=O)=O , can you help?
A: 1.56

Q: Looking for the measured MB9798 MITC95 P. aeruginosa uM Efflux WT of N[C@@H]1CCCN(c2ccc(S(=O)(=O)C3CNC3)c(S(N)(=O)=O)c2-c2nnn[nH]2)C1 , can you help?
A: 50.00

Q: Looking for the measured MB9798 MITC95 P. aeruginosa uM Efflux WT of NC(=O)C1CCN(c2ccc(S(=O)(=O)N[C@@H]3CCNC3)c(S(N)(=O)=O)c2-c2nn[nH]n2)CCN1 (stereo partly shown) , can you help?
A: 1.56
